measuredTarget: FGFR1 (Homo sapiens (Human), UniProt P11362)
Sequence (P11362 22-822): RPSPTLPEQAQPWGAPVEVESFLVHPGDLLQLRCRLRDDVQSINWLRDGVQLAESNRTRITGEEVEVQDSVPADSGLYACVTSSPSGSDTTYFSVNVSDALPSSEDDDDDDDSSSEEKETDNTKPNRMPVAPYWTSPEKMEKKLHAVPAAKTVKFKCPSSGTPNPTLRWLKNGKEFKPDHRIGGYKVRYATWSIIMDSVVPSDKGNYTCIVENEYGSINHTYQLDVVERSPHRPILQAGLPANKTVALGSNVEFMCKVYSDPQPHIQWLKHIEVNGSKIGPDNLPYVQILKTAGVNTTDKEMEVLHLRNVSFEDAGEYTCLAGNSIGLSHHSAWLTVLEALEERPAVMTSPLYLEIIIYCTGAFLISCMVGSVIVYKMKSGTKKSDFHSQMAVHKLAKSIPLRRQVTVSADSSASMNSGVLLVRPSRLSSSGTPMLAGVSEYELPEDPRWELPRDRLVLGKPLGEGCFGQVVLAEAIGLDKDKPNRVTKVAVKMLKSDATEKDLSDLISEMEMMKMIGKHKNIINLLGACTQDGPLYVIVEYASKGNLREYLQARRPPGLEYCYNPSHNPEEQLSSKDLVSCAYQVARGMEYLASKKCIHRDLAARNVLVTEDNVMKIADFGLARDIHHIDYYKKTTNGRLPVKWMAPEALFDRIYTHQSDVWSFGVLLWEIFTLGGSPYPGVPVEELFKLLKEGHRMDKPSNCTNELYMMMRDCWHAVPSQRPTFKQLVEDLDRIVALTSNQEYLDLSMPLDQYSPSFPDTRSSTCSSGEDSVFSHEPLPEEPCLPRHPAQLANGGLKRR
assayOverview: Kinase assay, binding constants (Kd), kinase-tagged T7 phage, qPCR
quantity: Kd

Exam item: Which Kd value is on record for Cc1cnnc(C)c1[C@H](C)Oc1ccc2[nH]nc(-c3ccc(N4CC5(C4)CN(S(C)(=O)=O)C5)nc3)c2c1 [Example 149] ?
Marked response: > 300 nM

Exam item: Which Kd value is on record for C[C@@H](Oc1ccc2[nH]nc(-c3cnc(N4CC(CC(F)(F)F)C4)c(C#N)c3)c2c1)c1c(Cl)cncc1Cl [Example 296] ?
Marked response: > 300 nM

Exam item: Which Kd value is on record for Cc1ncc(Cl)c([C@@H](C)Oc2ccc3[nH]nc(-c4ccc(N5CC6(CNC6)C5)nc4)c3c2)c1Cl [Example 177] ?
Marked response: 1 to 20 nM

Exam item: Which Kd value is on record for Cc1cnnc(C)c1[C@@H](C)Oc1ccc2[nH]nc(-c3ccc(N4CC5(CCCN(S(C)(=O)=O)C5)C4)nc3)c2c1 [Example 188] ?
Marked response: 20 to 100 nM

Exam item: Which Kd value is on record for C[C@@H](Oc1ccc2[nH]nc(-c3cnc(N4CC5(C4)CN(S(C)(=O)=O)C5)c(CN(C)C)c3)c2c1)c1c(Cl)cncc1Cl [Example 356] ?
Marked response: > 300 nM

Exam item: Which Kd value is on record for C[C@@H](Oc1ccc2[nH]nc(-c3ccc(N4CC5(C4)CN(S(C)(=O)=O)C5)nc3)c2c1)c1c(Cl)cnc(F)c1Cl [Example 197] ?
Marked response: 20 to 100 nM

Exam item: Which Kd value is on record for C[C@@H](Oc1ccc2[nH]nc(-c3cnc(N4CCN(S(C)(=O)=O)CC4)nc3)c2c1)c1c(Cl)cncc1Cl [Example 14] ?
Marked response: 1 to 20 nM

###

measuredTarget: FGFR3-BAIAP2L1 Ba/F3 cells (Homo sapiens)
Sequence (P22607 23-806 limits assumed, change not shown): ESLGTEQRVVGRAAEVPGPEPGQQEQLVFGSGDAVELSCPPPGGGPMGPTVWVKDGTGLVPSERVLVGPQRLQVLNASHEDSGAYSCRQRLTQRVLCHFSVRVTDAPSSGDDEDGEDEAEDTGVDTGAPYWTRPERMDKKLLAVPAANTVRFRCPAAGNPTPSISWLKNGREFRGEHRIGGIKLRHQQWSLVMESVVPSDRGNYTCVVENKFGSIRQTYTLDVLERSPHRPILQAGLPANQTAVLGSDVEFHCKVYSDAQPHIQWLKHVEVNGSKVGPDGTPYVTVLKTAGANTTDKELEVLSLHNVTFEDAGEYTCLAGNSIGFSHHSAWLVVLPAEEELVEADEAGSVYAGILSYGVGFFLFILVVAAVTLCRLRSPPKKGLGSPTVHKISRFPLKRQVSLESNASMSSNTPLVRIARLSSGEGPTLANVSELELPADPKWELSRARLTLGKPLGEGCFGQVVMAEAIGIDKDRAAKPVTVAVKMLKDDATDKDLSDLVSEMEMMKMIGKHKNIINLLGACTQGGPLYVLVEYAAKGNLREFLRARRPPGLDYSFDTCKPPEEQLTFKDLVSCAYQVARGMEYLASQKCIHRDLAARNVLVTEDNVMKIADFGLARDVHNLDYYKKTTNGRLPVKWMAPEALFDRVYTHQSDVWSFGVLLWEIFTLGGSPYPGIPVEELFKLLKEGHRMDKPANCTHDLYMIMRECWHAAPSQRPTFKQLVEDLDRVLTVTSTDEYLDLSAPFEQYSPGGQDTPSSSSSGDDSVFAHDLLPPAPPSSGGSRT
assayOverview: Ba/F3 cell viability assay (CellTiter-Glo 2.0), FGFR3-BAIAP2L1 Ba/F3
Type: cell-based
measurementConditions: FGFR3 > FGFR1 selectivity ratio in Ba/F3 FGFR fusion cell based assays
quantity: Ba/F3 FGFR1/FGFR3 Selectivity
Lab note: jot down the number only; don't add units.

Exam item: Which Ba/F3 FGFR1/FGFR3 Selectivity value is on record for "C[C@@H](Oc1ccc2[nH]nc(-c3cnc(N4CCC5(CC4)CNC(=O)C5)nc3)c2c1)c1c(Cl)cncc1Cl" ?
Marked response: 10

Exam item: Which Ba/F3 FGFR1/FGFR3 Selectivity value is on record for "C[C@@H](Oc1ccc2[nH]nc(-c3cnn(C4CCS(=O)(=O)CC4)c3)c2c1)c1c(Cl)cncc1Cl" ?
Marked response: 12

Exam item: Which Ba/F3 FGFR1/FGFR3 Selectivity value is on record for "C[C@@H](Oc1ccc2[nH]nc(-c3ccc(N4CC5(CCN5C)C4)nc3)c2c1)c1c(Cl)cncc1Cl" ?
Marked response: 13

Exam item: Which Ba/F3 FGFR1/FGFR3 Selectivity value is on record for "C[C@@H](Oc1ccc2[nH]nc(-c3cnc(N4CCC5(CC4)CCS(=O)(=O)C5)nc3)c2c1)c1c(Cl)cncc1Cl" ?
Marked response: 15

Exam item: Which Ba/F3 FGFR1/FGFR3 Selectivity value is on record for "C[C@@H](Oc1ccc2[nH]nc(-c3ccc(N4CC5(CCN(C)CC5)OC4=O)nc3)c2c1)c1c(Cl)cncc1Cl" ?
Marked response: 14

Exam item: Which Ba/F3 FGFR1/FGFR3 Selectivity value is on record for "C[C@@H](Oc1ccc2[nH]nc(-c3ccc(N4CCNC5(CC5)C4)nc3)c2c1)c1c(Cl)cncc1Cl" ?
Marked response: 13

Exam item: Which Ba/F3 FGFR1/FGFR3 Selectivity value is on record for "C[C@@H](Oc1ccc2[nH]nc(-c3ccc(N4CC5(CCCN(S(C)(=O)=O)C5)C4)nc3)c2c1)c1c(Cl)cncc1Cl" ?
Marked response: 12
